System: M14 melanoma
method notes: NCI tumour cell line growth inhibition, 48 h
Examples of compounds with documented TGI follow.
measured parameter: TGI (µM)

# compound, measured parameter, inequality sign, recorded number
measured = [
    ("O=C(NC(Nc1ccc(F)c(Cl)c1)(C(F)(F)F)C(F)(F)F)C(C(F)(F)F)C(F)(F)F", "TGI", ">", 100),
    ("C=C1C(=O)OC2/C=C(\\C)C(O)/C=C\\C(C)(O)CC(OC(=O)/C(C)=C/C)C12 (stereo not given)", "TGI", "=", 32.7),
    ("S=C1C=C(c2ccccc2)Sc2ccccc2N1", "TGI", ">", 100),
    ("O=[As](O)(O)c1ccc(Cc2ccc([As](=O)(O)O)cc2)cc1", "TGI", "=", 2.46),
    ("COc1ccc(/C=C2\\COc3ccc(-c4ccccc4)cc3C2=O)cc1O", "TGI", "=", 14.6),
    ("COc1ccc(C(Nc2ncccn2)c2cc3c(cc2O)OCO3)cc1 (stereo not given)", "TGI", "=", 39.4),
    ("COc1ccc(/C=C(\\C#N)c2cc3ccccc3n2C)cc1", "TGI", ">", 100),
    ("CCCC[C@@H](COC(=O)N(Cc1cccs1)Cc1cccs1)NC(=O)N[C@@H](CC(=O)OC)c1ccc2c(c1)OCO2", "TGI", ">", 100),
    ("CC(Cc1ccc(O)c(O)c1)C(C)Cc1ccc(O)c(O)c1 (stereo not given)", "TGI", "=", 34),
    ("O=C(NNS(=O)(=O)c1cc(C(F)(F)F)cc(C(F)(F)F)c1)c1cnn(-c2ccc(Cl)cc2)c1C(F)(F)F", "TGI", "=", 30.9),
]

====

Test system: U251 CNS
method notes: NCI tumour cell line growth inhibition, 48 h
measured parameter: TGI (µM)

# compound, measured parameter, units of measure, inequality sign, recorded number
records = [
    ("CCC1(OC(C)=O)C(=O)OCc2c1cc1n(c2=O)Cc2cc3ccccc3nc2-1 (stereo not given)", "TGI", "µM", "=", 2.64),
    ("Cc1cc2c(-c3ccccc3)cc(=O)[nH]c2cc1N", "TGI", "µM", ">", 100),
    ("CCS/C(Nc1ccccc1)=C(\\C#N)C(=O)Nc1ccc(OC)cc1", "TGI", "µM", ">", 100),
    ("CC(=O)Oc1c(OC(C)=O)c(-c2ccc(O)c(O)c2)c(O)c(O)c1-c1ccc(O)cc1", "TGI", "µM", ">", 100),
    ("COC(=O)CCCCC/C(=C\\C(=O)C(Cl)(Cl)Cl)OC", "TGI", "µM", "=", 90),
    ("CNC(=O)CN1CC(=O)N(C)C(=O)C1", "TGI", "µM", ">", 100),
    ("C=C(Cl)C(Cl)(CBr)CCC(Cl)C(C)(C)Cl (stereo not given)", "TGI", "µM", "=", 1.69),
    ("C[Se]C(=O)CC1=C2C=C(F)C=CC2/C(=C\\c2ccc(S(C)=O)cc2)C1C (stereo not given)", "TGI", "µM", "=", 1.43),
    ("Cc1ccc2[nH]c3c(C)c4ccncc4c(C)c3c2c1", "TGI", "µM", "=", 2.46),
    ("COc1ccc(C2S/C(=C\\c3ccc(OC)cc3OC)C(=O)N2NC(=O)Cc2ccccc2)cc1 (stereo not given)", "TGI", "µM", ">", 100),
    ("COc1cc2c(c(OC)c1OC)C(=O)CC2N (stereo not given)", "TGI", "µM", ">", 100),
    ("C=C1C(C)C2C(Cc3ccccc3)NC(=O)C23C(OC(C)=O)/C=C/C(C)(O)CC(C)C/C=C/C3C1O (stereo not given)", "TGI", "µM", "=", 18.4),
    ("O=C1c2cc(CCl)sc2C(=O)c2ccsc21", "TGI", "µM", "=", 1.14),
    ("O=C(CCN1CCCC1)Nc1ccc2c(NCCCc3ccccc3)c3ccccc3nc2c1", "TGI", "µM", "=", 2.36),
    ("CC1=C(C(=O)OC(C)C)C(c2ccccc2[N+](=O)[O-])C(C(=O)OC(CO[N+](=O)[O-])CO[N+](=O)[O-])=C(C)N1 (stereo not given)", "TGI", "µM", "=", 13.4),
    ("O=[N+]([O-])c1ccc(Cl)c(C2SCc3nc4ccccc4n32)c1 (stereo not given)", "TGI", "µM", ">", 100),
    ("COc1cc(CC2c3cc(OC)c(OC)cc3CCN2C)c(Oc2cc3c(cc2OC)-c2c(OC)c(OC)c(OC)c4c2C(C3)N(C)CC4)cc1OC (stereo not given)", "TGI", "µM", "=", 26),
    ("COc1ccc2c(c1)OC13Oc4cc(OC)ccc4C=C1CCCC3=C2", "TGI", "µM", ">", 100),
    ("CC[C@H](C)[C@H](NC(=O)C12C3C4C1C1C2C3C41NC(C)=O)C(=O)N(C)[C@H](C[C@@H](OC(C)=O)c1nc(C(=O)N[C@@H](Cc2ccccc2)C[C@H](C)C(=O)OC)cs1)C(C)C (stereo not given in full)", "TGI", "µM", ">", 14.3),
    ("Cn1c(=O)n(CC(Br)CBr)c(=O)n(CC(Br)CBr)c1=O (stereo not given)", "TGI", "µM", ">", 100),
]

====

Test system: COLO 205 colon
method notes: NCI tumour cell line growth inhibition, 48 h
# Lookup of reported TGI keyed by entry
measured parameter: TGI (µM)

# compound, inequality sign, recorded number
records = [
    ("c1ccc(-c2cc(-c3cc(-c4ccccc4)n(-c4ccccc4)n3)nn2-c2ccccc2)cc1", ">", 100),
    ("NNC(=O)c1n[nH]nc1SSc1n[nH]nc1C(=O)NN", ">", 100),
    ("COc1ccc(-c2ccc(-c3ccc(C(=N)N)cn3)s2)cc1Cl", "=", 3.15),
    ("Cc1ccc2[nH]c3c(C)c4ccncc4c(C)c3c2c1", "=", 2.23),
    ("O=c1c([Se]c2coc3ccccc3c2=O)coc2ccccc12", "=", 29.7),
    ("CC(C)[Si](OC1=CCCCCC12C(=O)N(C)c1ccccc12)(C(C)C)C(C)C (stereo unspecified)", "=", 35.8),
    ("COc1cc2c(cc1OC)CCN=C2", ">", 100),
    ("CCCC[C@@H](COC(=O)N(Cc1cccs1)Cc1cccs1)NC(=O)N[C@@H](CC(=O)OC)c1ccc2c(c1)OCO2", ">", 100),
    ("Cc1n[nH]c(=O)n1N=C(c1ccccc1)c1ccccc1", ">", 100),
    ("COc1ccc2c3c(c(OCCCN(C)C)nc2c1)-c1ccc(Cl)cc1C3=O", "=", 26.6),
    ("CC(C)(C)CC(C)(C)c1ccc(OCCOCCSC(=N)N)cc1", "=", 3.12),
    ("c1ccc2c3nnc(c2c1)SCCSCCSc1nnc(c2ccccc12)SCCSCCS3", ">", 100),
    ("CCOC(=O)C(C)(C)Oc1ccc2c(-c3ccc(Cl)cc3)cc(=O)oc2c1", ">", 100),
    ("Cn1c(=O)n(CC(Br)CBr)c(=O)n(CC(Br)CBr)c1=O (stereo unspecified)", "=", 43.4),
    ("CC1OC(=O)c2ccccc2NC1=O (stereo unspecified)", ">", 100),
    ("C=C(C)[C@H]1CC/C(C)=C/CCC(C)C(=O)CC/C(CO)=C\\[C@@H]1O (stereo partly specified)", ">", 100),
    ("COc1ccccc1/C=C\\c1cc(OC)c(OC)c(OC)c1", "=", 16.9),
    ("O=C1C2=C(c3ccccc31)C(c1ccccc1Cl)N1C(=O)CSC1=N2 (stereo unspecified)", ">", 100),
    ("CC(=O)OC1CCC2(C)C(=CC(C3C=C4CC(OC(C)=O)CCC4(C)C4=C3C3CC5OC6(CCC(C)CO6)C(C)C5C3(C)CC4)C3=C2CCC2(C)C3CC3OC4(CCC(C)CO4)C(C)C32)C1 (stereo unspecified)", "=", 36.1),
    ("C[Se]C(=O)CC1=C2C=C(F)C=CC2/C(=C\\c2ccc(S(C)=O)cc2)C1C (stereo unspecified)", "=", 6.36),
    ("Nc1cccc(OCc2nc(N)nc(N)c2-c2ccc(Cl)cc2)c1", "=", 44.1),
]

====

System: SR leukemia
method notes: NCI tumour cell line growth inhibition, 48 h; in the data active means GI50 below about 0.43 µM; inactive means the rest
Outcome codes: active, inactive

# molecule, experimental target, category
rows = [
    ("O=C(CCN1CCCC1)Nc1ccc2c(NCCCc3ccccc3)c3ccccc3nc2c1", "SR leukemia", "inactive"),
    ("Oc1c(CN2CCCC2)cc(COCc2ccccc2)c2cccnc12", "SR leukemia", "inactive"),
    ("COc1ccc(/C=C(\\C#N)c2cc3ccccc3n2C)cc1", "SR leukemia", "active"),
    ("COc1ccc(C(O)c2cc3c(N)c(C(=O)Nc4cccc(Br)c4)sc3nc2C)cc1 (stereo not given)", "SR leukemia", "active"),
    ("CC#CC(=O)N1CCC[C@H]1c1nc(-c2ccc(C(=O)Nc3ccccn3)cc2)c2c(N)nccn12", "SR leukemia", "inactive"),
    ("COc1ccc(/C=C2\\N=C3SC=C(N)N3C2=O)cc1", "SR leukemia", "inactive"),
    ("CN(Cc1cnc2nc(N)nc(N)c2n1)c1ccc(C(=O)NC(CCC(=O)O)C(=O)O)cc1 (stereo not given)", "SR leukemia", "active"),
    ("Cn1cnc([N+](=O)[O-])c1Sc1ncnc2c1ncn2C1OC(CO)C(O)C1O (stereo not given)", "SR leukemia", "inactive"),
    ("O=C(NNS(=O)(=O)c1cc(C(F)(F)F)cc(C(F)(F)F)c1)c1cnn(-c2ccc(Cl)cc2)c1C(F)(F)F", "SR leukemia", "inactive"),
    ("O=C(/C=C\\c1ccnc2ccccc12)c1ccc([N+](=O)[O-])cc1", "SR leukemia", "inactive"),
]
